The measurements presented in this section are drawn from ChEMBL document CHEMBL3301472.

PROTOCOL TEXT: MMV: MTT Cytotoxicity Assay Day 7 pi of Assay #7 (compound washed out Day 1 pi), U87-CD4-CXCR4 cells, % cell death @ 5mM compound
Type: toxicity, cell-based
RUN CONDITIONS: human, u87-cd4-cxcr4, 5000 µM
Measured % Cell Death accompanies every entry in the list below.

COMPOUND | % Cell Death
Cl.Cn1c(=O)n(C)c2cc(CNCCNc3ccnc4cc(Cl)ccc34)ccc21 | 31
CN(C)CCNc1cc(-c2ccccc2)nc2ccccc12 | -12
CCCCCCC(O)(c1ccc(F)cc1)C(CN1CCOCC1)c1ccccc1.Cl (configuration not stated) | -17
c1ccc2cc3c(Nc4ccc(N5CCOCC5)cc4)ccnc3cc2c1 | 98
O=c1nc(C=Cc2ccc(Br)cc2)oc2ccccc12 | 24
Oc1c(C(Nc2ccccn2)c2cccc(Oc3ccccc3)c2)ccc2cccnc12 (configuration not stated) | 97
CCCCCn1c(=N)n(CC(O)COc2cccc(C)c2)c2ccccc21.Cl (configuration not stated) | 60
CC(C)CNC(=O)c1c(N)n(CCc2ccccc2F)c2nc3ccccc3nc12 | -6
COc1ccc(Nc2cc(C)nc(NCc3ccccc3)n2)cc1 | 30
CCOc1cccc(C(=O)Nc2ccc(-c3nc4ccccc4[nH]3)cc2)c1 | -23
CC1=C(CC(=O)c2cccc([N+](=O)[O-])c2)C(=O)c2ccccc2C1=O | 91
COc1ccccc1N1C(=N)SC(=Cc2ccc(OCc3ccccc3F)cc2)C1=O | 7
O=C(NC(c1ccccc1)c1ccc2cccnc2c1O)c1ccccc1 (configuration not stated) | -26
CC(=O)Nc1nnc(SCc2c(C)cc(C(C)(C)C)cc2C)s1 | 10
O=C(Nc1cccc(C(F)(F)F)c1)c1cc(Cl)ccc1O | 97
CCOc1cc(Cl)c(C(C)NC(=O)c2ccccc2)cc1OCC (configuration not stated) | -6
Cc1ccc(-c2cc3c(nn2)-c2ccccc2C3=O)cc1 | 58
COc1ccc(-c2cc3c(SCC(=O)Nc4cc(C(F)(F)F)ccc4Cl)nccn3n2)cc1 | -22
Cl.c1ccc2c(NCCCCCCNc3c4c(nc5ccccc35)CCCC4)c3c(nc2c1)CCCC3 | -18
COc1ccc(C(=O)Nc2nonc2-c2ccc(OC)c(OC)c2)cc1Cl | 53
CCOC(=O)C1=C(C)N=c2sc(=Cc3cc(Cl)ccc3O)c(=O)n2C1c1ccc(OC)cc1 (configuration not stated) | -6
CN1c2ccccc2N(C)C1c1ccc2c(c1)OCO2 | 16
